# experimental-details: chemical genetic growth profiling, strain panel (AID 1159580);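 note: tested at 20 µM; growth read once vehicle control cultures reached saturation at 30 °C; 1 = growth at the plate median or of vehicle wells; lower values mean less growth of the strain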
# experimental-conditions: S. cerevisiae deletion strains, growth OD, locus YKR026C, strain gcn3
In all, about 5,500 compounds went through this assay and about 2,000 (36%) were called active. About 18% were inconclusive and are not listed. Cut-off read from the data, not from the text of the source: active = normalized growth mostly below about 0.91 (no sharp cut-off); inconclusive = no clear call, values can overlap the other calls; inactive = mostly above about 0.92. Some of the results follow.
// allowed return values: Y (active), N (inactive)

INSERT INTO assay_data (molecule, class_name) VALUES
  ('CC/C(=C(\c1ccccc1)c1ccc(OCCN(C)C)cc1)c1ccccc1', 'Y');

Challenge: Identify the outcome logged in this assay for the molecule shown: O=C(O)C1=CCNCC1
Response given: N

Challenge: Now this one: CCN(CC)CCOc1ccc(/C(=C(\Cl)c2ccccc2)c2ccccc2)cc1
Response given: Y

Challenge: Now this one: CN(C)CCOC(C)(c1ccccc1)c1ccccn1 (configuration not stated)
Response given: N

Challenge: Now this one: CC1(C)CCCC2(C)C3C1[C@@H](O)C2(C)C[C@H]3O (some centres not stated)
Response given: N

Challenge: Now this one: OC[C@@H]1CCCN2CCCC[C@H]12
Response given: N

Challenge: Now this one: O=C1O[C@H](C(O)CO)C(O)=C1O (some centres not stated)
Response given: N

---

# experimental-details: chemical genetic growth profiling, strain panel (AID 1159580);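 note: tested at 20 µM; growth read once vehicle control cultures reached saturation at 30 °C; 1 = growth at the plate median or of vehicle wells; lower values mean less growth of the strain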
# experimental-conditions: S. cerevisiae deletion strains, growth OD, locus YLR058C, strain SHM2
Out of some 5,500 compounds screened, about 2,000 (36%) were called active. Another 18% or so got no clear call; they are omitted. No stated cut-off is given here; in the data, active means normalized growth mostly below about 0.91 (no sharp cut-off); inconclusive means no clear call, values can overlap the other calls; inactive means mostly above about 0.92. Some of the results follow.
// allowed return values: active, inactive

Solved entries:
INSERT INTO measurements (compound, class_name) VALUES
  ('CNC[C@@H](O)c1ccc(O)c(O)c1', 'inactive'),
  ('CC(C)(C)NC[C@@H](O)COc1nsnc1N1CCOCC1', 'inactive'),
  ('COc1cc2c(c(OC)c1OC)-c1ccc(OC)c(=O)cc1[C@@H](NC(C)=O)CC2', 'inactive');

Field: next compound
Challenge: Identify the outcome logged in this assay for the compound shown: O=C(CCCCCCCCCCCCC1CCCC1)Nc1ccc(S(=O)(=O)c2ccc(NC(=O)CCCCCCCCCCCCC3CCCC3)cc2)cc1
Response given: inactive

---

# experimental-details: chemical genetic growth profiling, strain panel (AID 1159580);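 note: tested at 20 µM; growth read once vehicle control cultures reached saturation at 30 °C; 1 = growth at the plate median or of vehicle wells; lower values mean less growth of the strain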
# experimental-conditions: S. cerevisiae deletion strains, growth OD, locus YER111C, strain swi4
Out of some 5,500 compounds screened, about 2,000 (36%) were called active. About 18% were inconclusive and are not listed. Rule as the data show it: active = normalized growth mostly below about 0.91 (no sharp cut-off); inconclusive = no clear call, values can overlap the other calls; inactive = mostly above about 0.92. This is one part of the list.
// allowed return values: YES for active, NO for inactive

Solved entries:
INSERT INTO assay_data (molecule, class_name) VALUES
  ('Nc1ccc(S(=O)(=O)Nc2ccc(Cl)nn2)cc1', 'NO'),
  ('CN(C)CCOC(C)(c1ccccc1)c1ccccn1 (configuration not stated)', 'NO'),
  ('O=C(NC(=O)c1c(F)cccc1F)Nc1ccc(Cl)cc1', 'NO'),
  ('NC[C@H](O)c1ccc(O)c(O)c1', 'NO'),
  ('Nc1ncnc2c1ncn2[C@@H]1O[C@H](CO)[C@@H](O)[C@H]1O', 'NO'),
  ('O=C1C=CC2=C3c4cc(O)c(O)cc4CC3(O)COC2=C1O (configuration not stated)', 'NO'),
  ('CCOC(=O)c1oc2c(OC)c(O)cc(O)c2c(=O)c1-c1cc(OC)c(OC)c(OC)c1', 'NO'),
  ('Cc1ccc(/C(=C\CN2CCCC2)c2ccccn2)cc1', 'NO'),
  ('CC(=O)O[C@@H]1C[C@@]2(C)[C@H](c3ccoc3)C[C@H]3O[C@]32[C@]2(C)C(=O)C(O)=C3C(C)(C)C(=O)C=C[C@]3(C)C12 (some centres not stated)', 'NO'),
  ('Nc1ncnc2c1ncn2C1C[C@H](O)[C@@H](CO)O1 (some centres not stated)', 'NO');

Challenge: Identify the outcome logged in this assay for the molecule shown: OC[C@@H](O)[C@@H](O[C@@H]1O[C@H](CO)[C@@H](O)[C@H](O)[C@H]1O)[C@H](O)[C@@H](O)CO
Response given: NO

Challenge: Now this one: NC(=NCCC[C@H](N)C(=O)O)NC(CCC(=O)O)C(=O)O (some centres not stated)
Response given: NO

Challenge: Now this one: CCN(CC)CCNC(=O)c1cc(S(C)(=O)=O)ccc1OC
Response given: NO

Challenge: Now this one: CC(=O)NCCCS(=O)(=O)O
Response given: NO

Challenge: Now this one: C=CC(C1=CC(=O)C(OC)=CC1=O)c1ccc(O)cc1 (configuration not stated)
Response given: NO

Challenge: Now this one: Nc1ncn([C@@H]2O[C@H](CO)[C@@H](O)[C@H]2O)c(=O)n1
Response given: NO

Challenge: Now this one: COc1ccc(C(Cl)=C(c2ccc(OC)cc2)c2ccc(OC)cc2)cc1
Response given: NO

Challenge: Now this one: CC(C)NCC(O)c1ccc(O)c(O)c1 (configuration not stated)
Response given: NO

Challenge: Now this one: Cc1c(O)c(O)cc2c1CC=C1[C@@]2(C)CC[C@@]2(C)C3C[C@](C)(C(=O)O)CC[C@]3(C)CC[C@]12C (some centres not stated)
Response given: YES

Challenge: Now this one: Cc1c(Nc2ncccc2C(=O)O)cccc1C(F)(F)F
Response given: NO

Challenge: Now this one: Cc1ccc2c(Cl)cc(Cl)c(O)c2n1
Response given: NO

Challenge: Now this one: O=C1C=CC2=C3c4cc(O)c(O)cc4C[C@@]3(O)COC2=C1
Response given: NO

Challenge: Now this one: COc1cc(C(=O)NCc2ccc(OCCN(C)C)cc2)cc(OC)c1OC
Response given: NO

Challenge: Now this one: CN1C(CC(=O)c2ccccc2)CCCC1CC(O)c1ccccc1 (configuration not stated)
Response given: NO

Challenge: Now this one: C[C@H]1[C@H]2CCC3C4CC=C5C[C@@H](N(C)C)CC[C@]5(C)C4CC[C@@]32CN1C (some centres not stated)
Response given: NO

Challenge: Now this one: CC1(C)C(C(Cl)Cl)C2(Cl)C(Cl)C(Cl)C1(Cl)C2(Cl)Cl (configuration not stated)
Response given: NO

Challenge: Now this one: COc1ccccc1OCCNCC(O)COc1cccc2[nH]c3ccccc3c12 (configuration not stated)
Response given: NO

Challenge: Now this one: CNC[C@@H](O)c1ccc(O)c(O)c1
Response given: NO

Challenge: Now this one: O=C(O)C1=CCNCC1
Response given: NO

Challenge: Now this one: O=C(O)c1ccccc1Nc1cccc(C(F)(F)F)c1
Response given: YES

---

# experimental-details: chemical genetic growth profiling, strain panel (AID 1159580);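 note: tested at 20 µM; growth read once vehicle control cultures reached saturation at 30 °C; 1 = growth at the plate median or of vehicle wells; lower values mean less growth of the strain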
# experimental-conditions: S. cerevisiae deletion strains, growth OD, locus YGL240W, strain doc1, active compounds read low
The whole screen tested about 5,500 compounds, of which about 2,000 (36%) were called active. Another 18% or so got no clear call; they are omitted. Some of the results follow.
quantity-name: normalized growth
# respond with the number and nothing more

# count of solved cases: 10
INSERT INTO results (compound, observed_value) VALUES
  ('CC(=O)Oc1ccc(Cl)c2cccnc12', 0.0722),
  ('Oc1c(I)cc(I)c2cccnc12', 0.106),
  ('CNC[C@@H](O)c1ccc(O)c(O)c1', 0.989),
  ('Oc1c(Cl)cc(Cl)c2cccnc12', 0.0841),
  ('O=[N+]([O-])c1cc(O)c(O)c([N+](=O)[O-])c1', 0.998),
  ('Cc1c(Nc2ncccc2C(=O)O)cccc1C(F)(F)F', 1.02),
  ('CC(C)(C)NC[C@@H](O)COc1nsnc1N1CCOCC1', 1.02),
  ('CO[C@H]1/C=C/O[C@@]2(C)Oc3c(C)c(O)c4c(O)c(c5c(nc6cc(C)ccn65)c4c3C2=O)NC(=O)/C(C)=C\C=C\[C@H](C)[C@H](O)[C@@H](C)C(O)[C@@H](C)[C@H](OC(C)=O)[C@@H]1C (stereo partly drawn)', 1.03),
  ('CC1(C)CCCC2(C)C3C1[C@@H](O)C2(C)C[C@H]3O (stereo partly drawn)', 1),
  ('Oc1c(I)cc(Cl)c2cccnc12', 0.104);

Challenge: Returns the measured normalized growth for the input compound. Input: O=C(O)c1ccccc1Nc1ccccc1
Response given: 0.985

Challenge: Now this one: O=c1[nH]c(=O)n(C2C[C@@H](O)[C@@H](CO)O2)cc1F (stereo partly drawn)
Response given: 0.972

Challenge: Now this one: O=[N+]([O-])c1cc([As](=O)(O)O)ccc1O
Response given: 0.946

Challenge: Now this one: OC[C@@H](O)[C@@H](O[C@@H]1O[C@H](CO)[C@@H](O)[C@H](O)[C@H]1O)[C@H](O)[C@@H](O)CO
Response given: 0.99

Challenge: Now this one: Cc1c(O)c(O)cc2c1CC=C1[C@@]2(C)CC[C@@]2(C)C3C[C@](C)(C(=O)O)CC[C@]3(C)CC[C@]12C (stereo partly drawn)
Response given: 0.605

Challenge: Now this one: Oc1ccc(Cl)c2cccnc12
Response given: 0.0706

Challenge: Now this one: Nc1ccc([As](=O)(O)O)cc1
Response given: 1.01

Challenge: Now this one: C=C(NC(=O)C(=C)NC(=O)c1csc(C2=NC3c4csc(n4)C4NC(=O)c5csc(n5)C(C(C)(O)C(C)O)NC(=O)C5CSC(=N5)C(=CC)NC(=O)C(C(C)O)NC(=O)c5csc(n5)C3(CC2)NC(=O)C(C)NC(=O)C(=C)NC(=O)C(C)NC(=O)C(C(C)CC)NC2C=Cc3c(C(C)O)cc(nc3C2O)C(=O)OC4C)n1)C(N)=O (stereo not drawn)
Response given: 1.01

Challenge: Now this one: COc1cc2c(c(OC)c1OC)-c1ccc(OC)c(=O)cc1[C@@H](NC(C)=O)CC2
Response given: 1.03

Challenge: Now this one: CC(=O)NCCCS(=O)(=O)O
Response given: 1.02

Challenge: Now this one: Oc1c(Br)cc(Br)c2cccnc12
Response given: 0.0807

Challenge: Now this one: Cc1ccc2c(Cl)cc(Cl)c(O)c2n1
Response given: 1.02

Challenge: Now this one: CC(C)NCC(O)c1ccc(O)c(O)c1 (stereo not drawn)
Response given: 0.982
